- Tested on: Mycobacterium tuberculosis
- measurement-protocol: microbe, parasite or virus in culture
- settings: H37Rv, THP-1, 96 h
- Description: Antitubercular activity against Mycobacterium tuberculosis H37Rv infected in human THP1 macrophages incubated for 4 days by luciferase reporter gene assay
parameter: pIC50
Please treat pIC50 as minus the base-10 logarithm of the molar concentration.

Using the record for Cc1c(CN2CCOCC2)cc(-c2ccc(C(C)C)cc2)n1-c1ccc(N(C)C)cc1 , report its pIC50.
5.60

We now examine a further compound.
Using the record for Cc1c(CN2CCOCC2)cc(-c2ccc(C(C)C)cc2)n1CC(C)(C)O , report its pIC50.
5.60

---

- measurement-protocol: Tmax in C57BL/6 mouse at 50 mg/kg, po after 1 to 24 hrs by LC-MS/MS method
- Assay type: ADME, organism-based
- settings: in vivo
parameter: Tmax (min)
Express your answer in min, writing the number without its unit.

Using the record for Cc1c(CN2CCOCC2)cc(-c2ccc(C(C)C)cc2)n1C1CCCOC1 (configuration not stated) , report its Tmax.
54

We now examine a further compound.
Using the record for Cc1c(CN2CCOCC2)cc(-c2ccc(C(C)C)cc2)n1C(C)C , report its Tmax.
42

---

- measurement-protocol: AUC (0 to infinity) in C57BL/6 mouse at 4 mg/kg, iv after 1 to 24 hrs by LC-MS/MS method
- Format: ADME, organism-based
- Design: dose 4 mg/kg, route intravenous, time infinity
- settings: in vivo
parameter: AUC(0-inf)
Please state the value followed by its unit.

Using the record for Cc1c(CN2CCOCC2)cc(-c2ccc(C(C)C)cc2)n1C(C)C , report its AUC(0-inf).
4020 ng·h/mL

---

- target: UniProtKB P02768
- Sequence (P02768 whole entry): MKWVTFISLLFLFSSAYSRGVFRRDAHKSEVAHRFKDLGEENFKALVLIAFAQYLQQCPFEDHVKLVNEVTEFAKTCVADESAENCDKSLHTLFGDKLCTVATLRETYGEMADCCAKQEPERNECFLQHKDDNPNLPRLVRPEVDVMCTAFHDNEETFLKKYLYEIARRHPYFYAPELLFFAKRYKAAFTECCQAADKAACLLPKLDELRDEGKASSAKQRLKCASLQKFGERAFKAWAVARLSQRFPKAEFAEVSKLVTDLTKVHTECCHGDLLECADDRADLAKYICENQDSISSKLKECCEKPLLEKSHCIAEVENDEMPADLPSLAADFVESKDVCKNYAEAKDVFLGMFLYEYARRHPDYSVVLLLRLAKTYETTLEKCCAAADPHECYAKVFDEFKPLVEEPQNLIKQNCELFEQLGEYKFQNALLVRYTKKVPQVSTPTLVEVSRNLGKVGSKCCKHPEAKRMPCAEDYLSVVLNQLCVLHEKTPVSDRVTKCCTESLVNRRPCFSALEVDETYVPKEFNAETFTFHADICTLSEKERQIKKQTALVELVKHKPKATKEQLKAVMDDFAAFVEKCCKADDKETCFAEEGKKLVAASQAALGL
- measurement-protocol: Binding affinity to human serum albumin
- Type: ADME
- settings: isolated protein
Examples of compounds with documented Activity follow.
Express your answer in %, writing the number without its unit.

Using the record for Cc1c(CN2CCOCC2)cc(-c2ccc(C(C)C)cc2)n1C1CCC1 , report its Activity.
98.12

Using the record for Cc1c(CN2CCOCC2)cc(-c2ccc(C(C)C)cc2)n1-c1ccc(F)cn1 , report its Activity.
94.13

Using the record for Cc1c(CN2CCOCC2)cc(-c2ccc(C(F)(F)F)cc2)n1-c1ccc(F)cc1 , report its Activity.
98.33

Using the record for Cc1c(CN2CCOCC2)cc(-c2ccc(C(C)C)cc2)n1Cc1ccc(F)cc1 , report its Activity.
98.47

Using the record for Cc1c(CN2CCOCC2)cc(-c2ccc(C(C)C)cc2)n1C1CC1 , report its Activity.
96.49

More entries:
Using the record for Cc1c(CN2CCOCC2)cc(-c2ccc(C(C)C)cc2)n1C1CCCOC1 (stereo not given) , report its Activity.
92.85

Using the record for Cc1c(CN2CCOCC2)cc(-c2ccc(C(C)C)cc2)n1C(C)C , report its Activity.
94.11

Using the record for Cc1c(CN2CCOCC2)cc(-c2ccc(C(C)C)cc2)n1CC(C)C , report its Activity.
97.12

Using the record for Cc1c(CN2CCOCC2)cc(-c2ccc(C(C)C)cc2)n1-c1ccc(F)cc1 , report its Activity.
98.37

Using the record for Cc1c(CN2CCOCC2)cc(-c2ccc(C(C)C)cc2)n1C1CCCCC1 , report its Activity.
98.1

---

- Tested on: HepG2
- measurement-protocol: Cytotoxicity against human HepG2 cells assessed as compound concentration causing changes in nuclear morphology by Cell Health assay
- Format: cell-based
parameter: Activity

Using the record for Cc1c(CN2CCOCC2)cc(-c2ccc(Cl)cn2)n1-c1ccc(F)cc1 , report its Activity.
> 200 µM

Using the record for Cc1c(CN2CCOCC2)cc(-c2ccc(C(C)C)cc2)n1C1CCCCC1 , report its Activity.
> 200 µM

Using the record for Cc1c(CN2CCOCC2)cc(-c2ccc(C(C)C)cc2)n1C , report its Activity.
40 µM

---

- measurement-protocol: in vitro
- settings: human, HepG2 cells
- Description: Selectivity index, ratio of TC50 for human HepG2 cells to MIC for Mycobacterium tuberculosis
Examples of compounds with documented selectivity ratio follow.
Could you respond with only the numeric value?

Using the record for Cc1c(CN2CCOCC2)cc(-c2ccc(C(F)(F)F)cc2)n1-c1ccc(F)cc1 , report its selectivity ratio.
167

Using the record for Cc1c(CN2CCOCC2)cc(-c2ccc(C(C)C)cc2)n1C , report its selectivity ratio.
13

Using the record for Cc1c(CN2CCOCC2)cc(-c2ccc(C(C)C)cc2)n1-c1ccc(F)cn1 , report its selectivity ratio.
33

Using the record for CC(=O)Nc1ccc(-c2cc(CN3CCOCC3)c(C)n2-c2ccc(F)cc2)cc1 , report its selectivity ratio.
40

Using the record for Cc1c(CN2CCOCC2)cc(-c2ccc(C(C)C)cc2)n1C1CCC1 , report its selectivity ratio.
250

---

- measurement-protocol: Half life in C57BL/6 mouse at 4 mg/kg, iv after 1 to 24 hrs by LC-MS/MS method
- Type: ADME, organism-based
- settings: in vivo
parameter: half-life (h)
Express your answer in h, writing the number without its unit.

Using the record for Cc1c(CN2CCOCC2)cc(-c2ccc(C(C)C)cc2)n1C(C)C , report its half-life.
1.7

---

- measurement-protocol: Cytotoxicity against human HepG2 cells incubated for 48 hrs by Cell-titer Glo assay
- Format: cell-based
- settings: read-out: TC50
parameter: CC50 at 48 h (µM)
Express your answer in µM, writing the number without its unit.

Worked examples, 3 compounds total:
Using the record for Cc1c(CN2CCOCC2)cc(-c2ccc(C(C)C)cc2)n1[C@@H]1CCCN(C)C1 , report its CC50 at 48 h.
25

Using the record for Cc1c(CN2CCOCC2)cc(-c2ccc(C(C)C)cc2)n1C , report its CC50 at 48 h.
16

Using the record for CC(=O)Nc1ccc(-c2cc(CN3CCOCC3)c(C)n2-c2ccc(F)cc2)cc1 , report its CC50 at 48 h.
80

More entries:
Using the record for Cc1c(CN2CCOCC2)cc(-c2ccc(C(F)(F)F)cc2)n1C1CCC1 , report its CC50 at 48 h.
20

Using the record for Cc1c(CN2CCOCC2)cc(-c2ccc(C(C)C)cc2)n1CC(C)(C)O , report its CC50 at 48 h.
40

Using the record for Cc1c(CN2CCOCC2)cc(-c2ccc(C(C)C)cc2)n1-c1ccc(N(C)C)cc1 , report its CC50 at 48 h.
16

Using the record for Cc1c(CN2CCOCC2)cc(-c2ccc(C(C)C)cc2)n1[C@@H]1CCCNC1 , report its CC50 at 48 h.
16

---

- Test system: Mycobacterium tuberculosis
- measurement-protocol: microbe, parasite or virus in culture
- settings: H37Rv, THP-1, 96 h
Mark 1 only for IC50 values smaller than 3 µM; exact matches and larger values are -1.

IC50 under 3 µM? Item: Cc1c(CN2CCOCC2)cc(-c2ccc(C(C)C)cc2)n1C1CCN(C(=O)OC(C)(C)C)CC1
-1

IC50 under 3 µM? Item: Cc1c(CN2CCOCC2)cc(-c2ccc(C(C)C)cc2)n1C1COC1
1

IC50 under 3 µM? Item: Cc1c(CN2CCOCC2)cc(-c2ccc(Cl)nc2)n1-c1ccc(F)cc1
-1

More entries:
IC50 under 3 µM? Item: Cc1c(CN2CCOCC2)cc(-c2ccc(C(C)C)cc2)n1C1CCCCC1
1

IC50 under 3 µM? Item: Cc1c(CN2CCOCC2)cc(-c2ccc(C(C)C)cc2)n1C1CCCOC1 (stereo not given)
1

IC50 under 3 µM? Item: Cc1cc(Cl)ccc1-c1cc(CN2CCOCC2)c(C)n1-c1ccc(F)cc1
-1

IC50 under 3 µM? Item: Cc1c(CN2CCOCC2)cc(-c2ccc(C(C)C)cc2)n1-c1ccc(F)cc1
1

IC50 under 3 µM? Item: CC(=O)Nc1ccc(-c2cc(CN3CCOCC3)c(C)n2-c2ccc(F)cc2)cc1
-1

IC50 under 3 µM? Item: Cc1c(CN2CCOCC2)cc(-c2ccc(C(C)C)cc2)n1CC1CCOCC1
-1

IC50 under 3 µM? Item: Cc1c(CN2CCOCC2)cc(-c2ccc(C(C)C)cc2)n1CC1CCCO1 (stereo not given)
-1

---

- measurement-protocol: Cytotoxicity against human HepG2 cells incubated for 48 hrs by Cell-titer Glo assay
- Assay type: cell-based
- settings: read-out: TC50
Mark criterion met only for CC50 at 48 h values smaller than 40 µM; exact matches and larger values are criterion not met.

CC50 at 48 h under 40 µM? Item: Cc1c(CN2CCOCC2)cc(-c2ccc(C(C)C)cc2)n1C1CCCN(C(=O)OC(C)(C)C)C1 (single isomer, unassigned)
criterion met

More entries:
CC50 at 48 h under 40 µM? Item: Cc1c(CN2CCOCC2)cc(C2CCCCC2)n1-c1ccc(F)cc1
criterion not met

CC50 at 48 h under 40 µM? Item: Cc1c(CN2CCOCC2)cc(Cc2ccccc2)n1-c1ccc(F)cc1
criterion met

CC50 at 48 h under 40 µM? Item: Cc1c(CN2CCOCC2)cc(-c2ccc(C(C)C)cc2)n1C1CCOCC1
criterion not met

CC50 at 48 h under 40 µM? Item: Cc1c(CN2CCOCC2)cc(-c2ccc(C(C)C)cc2)n1C1CC1
criterion met

CC50 at 48 h under 40 µM? Item: COCCn1c(-c2ccc(C(C)C)cc2)cc(CN2CCOCC2)c1C
criterion not met

CC50 at 48 h under 40 µM? Item: Cc1c(CN2CCOCC2)cc(-c2ccc(C(C)C)cc2)n1CC(C)C
criterion met

CC50 at 48 h under 40 µM? Item: Cc1c(CN2CCOCC2)cc(-c2ccc(Cl)nc2)n1-c1ccc(F)cc1
criterion not met

CC50 at 48 h under 40 µM? Item: Cc1[nH]c(-c2ccc(C(C)C)cc2)cc1CN1CCOCC1
criterion met
